assay-overview: NCI Yeast Anticancer Drug Screen. Data for the cln2 rad14 strain (AID 165);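 further: 0% = growth equal to vehicle treated cultures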
study-conditions: S. cerevisiae cln2 rad14 strain, at 50.0 µM, hits give high values
Compounds without any hit were thinned out: in the full panel of roughly 79,000, 15% have a hit. Where a SMILES comes first, the peptide text is derived from it. [ ]: non-standard residue; d: D form. The star is where a group is joined. Ac5c = NC1(C(=O)O)CCCC1; Cbz = O=C(OCc1ccccc1)*; Nva = CCC[CH](N)C(=O)O

{"compound": "CC(=O)Oc1ccc(CCNC(c2ccccc2)c2ccccc2)cc1OC(C)=O", "growth inhibition, %": -7.6}
{"compound": "CCOC(=O)c1ccc(NC(=O)CCCCCCCCC(=O)Nc2ccc(C(=O)OCC)cc2)cc1", "growth inhibition, %": -8.45}
{"compound": "NC(=O)C1=Cc2cccn2-c2ccccc2S1", "growth inhibition, %": -16.6}
{"compound": "COc1ccc2c(c1)Cc1cc(N=[N+]([O-])c3ccc4c(c3)Cc3cc(OC)ccc3-4)ccc1-2", "growth inhibition, %": -80}
{"compound": "Cc1ccc(NC(=O)CC2C(=O)Nc3ccccc3S2=O)c(C)c1 (stereo unspecified)", "growth inhibition, %": 20.4}
{"compound": "CCNC(=O)OCCN1C(=O)C2C3CCC(O3)C2C1=O (stereo unspecified)", "growth inhibition, %": 3.35}
{"compound": "COc1ccc(/C(=N\\N=C(N)N)C(c2ccc(OC)cc2)C2OC(=O)c3ccccc32)cc1 (stereo unspecified)", "growth inhibition, %": -64.8}
{"compound": "COc1ccc2c(c1OC)C(=O)C2", "growth inhibition, %": 9}
{"compound": "C1COC2OCCOC2O1 (stereo unspecified)", "growth inhibition, %": -2.55}
{"compound": "N/C(=N\\N=C\\C1CC2C=CC1C2)NO (stereo unspecified)", "growth inhibition, %": -0.05}
{"compound": "O=C(O)c1cc2c(c(C(=O)O)c1O)CCCC2", "growth inhibition, %": -23.2}
{"compound": "CCCCCCCCCCCCCCCCOc1ccc(N)cc1", "growth inhibition, %": -41.2}
{"compound": "COc1ccc2c3c(c(C(=O)O)oc13)CCC2", "growth inhibition, %": -5.8}
{"compound": "Cc1ccc(S(=O)(=O)n2cnc(CC(NC(=O)C3CCC(=O)N3C(=O)OCc3ccccc3)C(=O)N3CCCC3C(=O)NN)c2)cc1 (stereo unspecified)", "growth inhibition, %": -9.95}
{"compound": "[N-]=[N+]=Nc1ccccc1C(=O)N1C(=O)c2ccccc2C(=O)N(C(=O)c2ccccc2N=[N+]=[N-])c2ccccc21", "growth inhibition, %": 0.35}
{"compound": "O=c1[nH]cc(SSc2c[nH]c(=O)[nH]c2=O)c(=O)[nH]1", "growth inhibition, %": -25.3}
{"compound": "Cc1c(Cl)cccc1NC(=O)c1c(Cl)c(Cl)c(Cl)c(Cl)c1C(=O)O", "growth inhibition, %": -31.7}
{"compound": "COc1cc(C2C(C(=O)NCc3ccccc3)=C(C)NC(C)=C2C(=O)NCc2ccccc2)ccc1O", "growth inhibition, %": -3.9}
{"compound": "CCCC(NC(=O)OCc1ccccc1)C(=O)NC(Cc1ccc(O)cc1)C(=O)O (stereo unspecified) (Cbz-[Nva]-Tyr-OH; configuration not given here)", "growth inhibition, %": 7}
{"compound": "Cc1cc(Br)cc(C)c1NC(=O)C(=O)C1C(=O)C(CC2C(=O)c3ccccc3C2=O)C(=O)CC1(C)C (stereo unspecified)", "growth inhibition, %": -5.7}
{"compound": "CCCCN(CCCC)CC(O)c1cc(Cc2ccccc2)nc2c(Cl)cc(Cl)cc12 (stereo unspecified)", "growth inhibition, %": 89.8}
{"compound": "C=Cc1ccc(C[n+]2cccc(C(N)=O)c2)cc1", "growth inhibition, %": -1.75}
{"compound": "CCCCCOC(=O)OC(C)CNC(=O)C(C)OC(=O)OCCCCC (stereo unspecified)", "growth inhibition, %": -61.4}
{"compound": "COc1ccc(/C(C)=N/OC(=O)c2sc3ccccc3c2Cl)cc1CN1CCOCC1", "growth inhibition, %": -2.05}
{"compound": "CNCc1ccccc1[N+](=O)[O-]", "growth inhibition, %": -9.95}
{"compound": "CC(CO)(CO)CN1CCCCC1", "growth inhibition, %": -36.5}
{"compound": "COC(C(N)=O)c1ccccc1 (stereo unspecified)", "growth inhibition, %": -8}
{"compound": "Nc1cccc(/C=C/c2cccc([N+](=O)[O-])c2)c1", "growth inhibition, %": 4}
{"compound": "O=C(O)c1cc(S(=O)(=O)O)ccc1O", "growth inhibition, %": -29.9}
{"compound": "CC(=O)O[C@H]1C[C@H]2CC[C@@]1(C)C2(C)C", "growth inhibition, %": -24.8}
{"compound": "Cc1ccc2c(c1)C(OC(=O)Nc1ccccc1)CCC2 (stereo unspecified)", "growth inhibition, %": 6.05}
{"compound": "COC(=O)CC1OCC=C2CN3CCC45C6=CC(=O)C(=O)C([N+](=O)[O-])=C6NC4C1C2CC35 (stereo unspecified)", "growth inhibition, %": 8.3}
{"compound": "COc1ccc(OCC(C)(C)O)cc1", "growth inhibition, %": 0.2}
{"compound": "C=CCNC(=S)Nc1cccc(OC(=O)Nc2ccc(Cl)c(Cl)c2)c1", "growth inhibition, %": -23.1}
{"compound": "O=C(O)c1c(Cl)c(Cl)c(Cl)c(C(=O)O)c1Cl", "growth inhibition, %": -36.1}
{"compound": "CCCCCCCCCCCCCCCCSc1ccc(S(=O)(=O)N(C)C)cc1N", "growth inhibition, %": 10}
{"compound": "NC1(C(=O)NC2(C(=O)O)CCCC2)CCCC1 (H-[Ac5c]-[Ac5c]-OH)", "growth inhibition, %": -6.65}
{"compound": "CS(=O)(=O)c1cc(=O)[nH]c(=O)[nH]1", "growth inhibition, %": 25.6}
{"compound": "CCOC(=O)C(CN(CC)CC)c1ccccc1 (stereo unspecified)", "growth inhibition, %": 1.8}
{"compound": "CCOC(=O)c1c(-c2ccccc2)n2c3c(cccc13)CC2", "growth inhibition, %": 6.15}
{"compound": "CCC(CCC(C)C)(SCC(N)=O)C(=O)O (stereo unspecified)", "growth inhibition, %": -39.3}
{"compound": "Nc1ccc(C(=O)c2ccccc2)cc1", "growth inhibition, %": -8.55}
{"compound": "CCc1cccc(CC)c1NC(=S)NC(=O)c1ccc(Br)cc1", "growth inhibition, %": 8.3}
{"compound": "CCC(C)c1ccc(CCO)cc1 (stereo unspecified)", "growth inhibition, %": 10}
{"compound": "CCCCCCCC/C=C/CCCCCCCC(=O)OCC(C)(C)N1C(=O)CCC1=O", "growth inhibition, %": -11.2}
{"compound": "Cc1[nH]c2ccccc2c1C1Cc2ccccc2N1C(=O)/C=C/C=C/c1ccccc1 (stereo unspecified)", "growth inhibition, %": 38.5}
